Target or system SRC SH3 domain (aa 77-140) (Homo sapiens): recorded pKd listed per item.
pKd: −log10 of the molar value. Peptide text beside a SMILES is read from it.

CC(C)[C@H](N)C(=O)N1CCC[C@H]1C(=O)N[C@H](C(=O)N1CCC[C@H]1C(=O)N1CCC[C@H]1C(=O)N1CCC[C@H]1C(=O)N[C@H](C(=O)N1CCC[C@H]1C(=O)N1CCC[C@H]1C(=O)N[C@@H](CCCNC(=N)N)C(=O)N[C@@H](CCCNC(=N)N)C(=O)N[C@@H](CCCNC(=N)N)C(=O)O)C(C)C)C(C)C [RP1, reference compound] ... < 3.70
CC[C@H](C)[C@H](NC(=O)[C@H](Cc1c[nH]cn1)NC(=O)[C@@H](N)CCC(N)=O)C(=O)N1CCC[C@H]1C(=O)N[C@@H](CCCCN)C(=O)N[C@@H](CC(C)C)C(=O)N1CCC[C@H]1C(=O)N1CCC[C@H]1C(=O)N[C@@H](CCCCN)C(=O)N[C@H](C(=O)N[C@@H](Cc1ccc(O)cc1)C(=O)O)[C@@H](C)O [Peptide P10] (H-QHIPKLPPKTY-OH; N-terminus and C-terminus assumed) ... < 3.70

GET /values?readout=pKd&system=SRC SH3 domain (aa 77-140) (Homo sapiens)&item= CC(C)C[C@H](NC(=O)[C@@H]1CCCN1C(=O)[C@@H]1CCCN1C(=O)[C@H](CO)NC(=O)[C@@H]1CCCN1C(=O)[C@H](CC(C)C)NC(=O)[C@H](Cc1c[nH]cn1)NC(=O)[C@@H](N)CCCNC(=N)N)C(=O)N[C@H](C(=O)N[C@@H](CCC(N)=O)C(=O)O)[C@@H](C)O [Peptide P8] (H-RHLPSPPLTQ-OH; N-terminus and C-terminus assumed)
< 3.70

---

Target: DLG2 SH3 domain (aa 536-606) (Homo sapiens, UniProt Q15700)
Sequence (Q15700 536-606): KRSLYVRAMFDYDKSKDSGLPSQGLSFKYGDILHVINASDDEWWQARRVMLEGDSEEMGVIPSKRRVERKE
Peptide text beside a SMILES is read from it.
Kd listing for selected molecules.

CC(C)C[C@H](NC(=O)[C@H](Cc1c[nH]cn1)NC(=O)[C@H](CC(C)C)NC(=O)[C@@H]1CCCN1C(=O)[C@H](CO)NC(=O)[C@H](CO)NC(=O)[C@@H](N)CO)C(=O)N[C@@H](CCC(N)=O)C(=O)N1CCC[C@H]1C(=O)N1CCC[C@H]1C(=O)N1CCC[C@H]1C(=O)N[C@@H](CC(C)C)C(=O)NCC(=O)N[C@@H](CCCCN)C(=O)N[C@@H](CCCCN)C(=O)O [Peptide P6] (H-SSSPLHLQPPPLGKK-OH; N-terminus and C-terminus assumed) ... > 200 µM
CC(C)C[C@H](NC(=O)[C@@H](NC(=O)[C@@H](N)C(C)C)[C@@H](C)O)C(=O)N1CCC[C@H]1C(=O)N[C@@H](Cc1c[nH]cn1)C(=O)NCC(=O)N1CCC[C@H]1C(=O)N[C@@H](CCCNC(=N)N)C(=O)N[C@@H](CO)C(=O)N[C@@H](C)C(=O)O [Peptide P2] (H-VTLPHGPRSA-OH) ... > 200 µM

Field request: Kd | item: CC(C)C[C@H](NC(=O)[C@@H]1CCCN1C(=O)[C@@H](NC(=O)[C@H](CCCNC(=N)N)NC(=O)[C@@H]1CCCN1C(=O)[C@H](CO)NC(=O)[C@H](CC(N)=O)NC(=O)[C@@H]1CCCN1C(=O)[C@H](C)NC(=O)[C@@H](N)CO)[C@@H](C)O)C(=O)N[C@H](C(=O)N1CCC[C@H]1C(=O)N1CCC[C@H]1C(=O)N1CCC[C@H]1C(=O)N[C@@H](C)C(=O)N[C@@H](CO)C(=O)O)[C@@H](C)O [Peptide P1] (H-SAPNSPRTPLTPPPAS-OH)
> 200 µM

---

Biological target: SH3GLB1 SH3 domain (aa 305-365) (Homo sapiens, UniProt Q9Y371)
Sequence (Q9Y371 305-365): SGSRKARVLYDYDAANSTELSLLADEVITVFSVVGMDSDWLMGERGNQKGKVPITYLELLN
Peptide text beside a SMILES is read from it.
PROPERTY_MEASURED: Kd

CC(C)C[C@H](NC(=O)[C@@H](NC(=O)[C@@H](N)C(C)C)[C@@H](C)O)C(=O)N1CCC[C@H]1C(=O)N[C@@H](Cc1c[nH]cn1)C(=O)NCC(=O)N1CCC[C@H]1C(=O)N[C@@H](CCCNC(=N)N)C(=O)N[C@@H](CO)C(=O)N[C@@H](C)C(=O)O [Peptide P2] (H-VTLPHGPRSA-OH) ... > 200 µM

Then there is this molecule:
Please look up its Kd: CC(C)C[C@H](NC(=O)[C@@H]1CCCN1C(=O)[C@@H]1CCCN1C(=O)[C@H](CO)NC(=O)[C@@H]1CCCN1C(=O)[C@H](CC(C)C)NC(=O)[C@H](Cc1c[nH]cn1)NC(=O)[C@@H](N)CCCNC(=N)N)C(=O)N[C@H](C(=O)N[C@@H](CCC(N)=O)C(=O)O)[C@@H](C)O [Peptide P8] (H-RHLPSPPLTQ-OH; N-terminus and C-terminus assumed)
> 200 µM

---

Molecular target: ARHGEF30 (OBSCN) SH3 domain (aa 5600-5667) (Homo sapiens)
Sequence (Q5VST9 5600-5667): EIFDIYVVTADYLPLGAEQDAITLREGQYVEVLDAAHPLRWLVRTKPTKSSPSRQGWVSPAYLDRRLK
Peptide text beside a SMILES is read from it.
PROPERTY_MEASURED: Kd

Observe how each entry below is paired with its result.
CC[C@H](C)[C@H](N)C(=O)N[C@@H](C)C(=O)NCC(=O)N1CCC[C@H]1C(=O)N1CCC[C@H]1C(=O)N[C@H](C(=O)N1CCC[C@H]1C(=O)N1CCC[C@H]1C(=O)N[C@@H](CCCNC(=N)N)C(=O)N[C@@H](CCC(N)=O)C(=O)N[C@@H](CO)C(=O)O)C(C)C [Peptide P9] (H-IAGPPVPPRQS-OH) ... > 200 µM
CC(C)C[C@H](NC(=O)[C@@H]1CCCN1C(=O)[C@@H](NC(=O)[C@H](CCCNC(=N)N)NC(=O)[C@@H]1CCCN1C(=O)[C@H](CO)NC(=O)[C@H](CC(N)=O)NC(=O)[C@@H]1CCCN1C(=O)[C@H](C)NC(=O)[C@@H](N)CO)[C@@H](C)O)C(=O)N[C@H](C(=O)N1CCC[C@H]1C(=O)N1CCC[C@H]1C(=O)N1CCC[C@H]1C(=O)N[C@@H](C)C(=O)N[C@@H](CO)C(=O)O)[C@@H](C)O [Peptide P1] (H-SAPNSPRTPLTPPPAS-OH) ... > 200 µM

Give its Kd value. Item: CC(C)C[C@H](NC(=O)[C@H](Cc1c[nH]cn1)NC(=O)[C@H](CC(C)C)NC(=O)[C@@H]1CCCN1C(=O)[C@H](CO)NC(=O)[C@H](CO)NC(=O)[C@@H](N)CO)C(=O)N[C@@H](CCC(N)=O)C(=O)N1CCC[C@H]1C(=O)N1CCC[C@H]1C(=O)N1CCC[C@H]1C(=O)N[C@@H](CC(C)C)C(=O)NCC(=O)N[C@@H](CCCCN)C(=O)N[C@@H](CCCCN)C(=O)O [Peptide P6] (H-SSSPLHLQPPPLGKK-OH; N-terminus and C-terminus assumed)
> 200 µM

---

# GRB2-1 SH3 domain (aa 1-58) (Homo sapiens, UniProt P62993): Kd values follow
# Sequence (P62993 1-58): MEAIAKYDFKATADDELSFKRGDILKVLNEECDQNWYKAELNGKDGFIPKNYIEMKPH
Peptide text beside a SMILES is read from it.

CC(C)C[C@H](NC(=O)[C@@H]1CCCN1C(=O)[C@@H](NC(=O)[C@H](CCCNC(=N)N)NC(=O)[C@@H]1CCCN1C(=O)[C@H](CO)NC(=O)[C@H](CC(N)=O)NC(=O)[C@@H]1CCCN1C(=O)[C@H](C)NC(=O)[C@@H](N)CO)[C@@H](C)O)C(=O)N[C@H](C(=O)N1CCC[C@H]1C(=O)N1CCC[C@H]1C(=O)N1CCC[C@H]1C(=O)N[C@@H](C)C(=O)N[C@@H](CO)C(=O)O)[C@@H](C)O [Peptide P1] (H-SAPNSPRTPLTPPPAS-OH) ... > 200 µM
CC(C)[C@H](N)C(=O)N1CCC[C@H]1C(=O)N[C@H](C(=O)N1CCC[C@H]1C(=O)N1CCC[C@H]1C(=O)N1CCC[C@H]1C(=O)N[C@H](C(=O)N1CCC[C@H]1C(=O)N1CCC[C@H]1C(=O)N[C@@H](CCCNC(=N)N)C(=O)N[C@@H](CCCNC(=N)N)C(=O)N[C@@H](CCCNC(=N)N)C(=O)O)C(C)C)C(C)C [RP1, reference compound] ... 11 µM
CC(C)C[C@H](NC(=O)[C@H](Cc1c[nH]cn1)NC(=O)[C@H](CC(C)C)NC(=O)[C@@H]1CCCN1C(=O)[C@H](CO)NC(=O)[C@H](CO)NC(=O)[C@@H](N)CO)C(=O)N[C@@H](CCC(N)=O)C(=O)N1CCC[C@H]1C(=O)N1CCC[C@H]1C(=O)N1CCC[C@H]1C(=O)N[C@@H](CC(C)C)C(=O)NCC(=O)N[C@@H](CCCCN)C(=O)N[C@@H](CCCCN)C(=O)O [Peptide P6] (H-SSSPLHLQPPPLGKK-OH; N-terminus and C-terminus assumed) ... > 200 µM
CC(C)C[C@H](NC(=O)[C@@H](NC(=O)[C@@H](N)C(C)C)[C@@H](C)O)C(=O)N1CCC[C@H]1C(=O)N[C@@H](Cc1c[nH]cn1)C(=O)NCC(=O)N1CCC[C@H]1C(=O)N[C@@H](CCCNC(=N)N)C(=O)N[C@@H](CO)C(=O)N[C@@H](C)C(=O)O [Peptide P2] (H-VTLPHGPRSA-OH) ... > 200 µM
CC[C@H](C)[C@H](NC(=O)[C@H](C)NC(=O)[C@@H]1CCCN1C(=O)[C@@H]1CCCN1C(=O)[C@H](CO)NC(=O)[C@H](CC(=O)O)NC(=O)[C@@H](N)CC(C)C)C(=O)N1CCC[C@H]1C(=O)N1CCC[C@H]1C(=O)N[C@@H](CCCNC(=N)N)C(=O)N[C@@H](CCC(N)=O)C(=O)N1CCC[C@H]1C(=O)N[C@H](C(=O)N[C@@H](CO)C(=O)N[C@@H](CCCCN)C(=O)O)[C@@H](C)O [Peptide P4] (H-LDSPPAIPPRQPTSK-OH) ... 60 µM

The record that follows has no Kd shown yet.
Checklist item: Kd tested on GRB2-1 SH3 domain (aa 1-58) (Homo sapiens, UniProt P62993), entry CC(C)C[C@H](NC(=O)[C@@H]1CCCN1C(=O)[C@@H]1CCCN1C(=O)[C@H](CO)NC(=O)[C@@H]1CCCN1C(=O)[C@H](CC(C)C)NC(=O)[C@H](Cc1c[nH]cn1)NC(=O)[C@@H](N)CCCNC(=N)N)C(=O)N[C@H](C(=O)N[C@@H](CCC(N)=O)C(=O)O)[C@@H](C)O [Peptide P8] (H-RHLPSPPLTQ-OH; N-terminus and C-terminus assumed) , value?
> 200 µM

Attribution: paper PMC10814857
